# Tested on: OVCAR-3 ovarian
# ASSAY_COMMENT: NCI-60 one-dose screen, 48 h
# EXPERIMENTAL_CONTEXT: 10 µM unless noted
The panel holds about 83,000 compounds, 20% with a hit somewhere; the sample as a whole holds those more often. Calls of active or inactive are those of the source. Rule for the calls: active = growth percent below 10; inactive = the rest.
Outcomes: t = active, f = inactive

> print(dat)
                        structure.as.smiles  class.label
1  COc1ccc(/C(N)=N/C(N)=N/c2nc3ccccc3s2)cc1            f
2  CCCCCc1ccc(S(=O)(=O)Nc2cc(-c3csc(NC(=O)CN4CCN(C)CC4)n3)ccc2N2CCN(C)CC2)cc1            t
3  CCN(CC)c1ccc(NC2=C(Cl)C(=O)c3nc(C)ccc3C2=O)cc1            t

* * *

# Tested on: SK-MEL-28 melanoma
# ASSAY_COMMENT: NCI-60 one-dose screen, 48 h (100 = growth as untreated, 0 = no growth, -100 = all killed)
# EXPERIMENTAL_CONTEXT: 10 µM unless noted
The panel holds about 83,000 compounds, 20% with a hit somewhere; the sample as a whole holds those more often.
Hi! Could you tag entries with growth below 60% as True, and those at or above as False? Much appreciated.

> print(dat)
                                    compound                 tgt  class.label
 1  COc1cc(-c2nc(-c3ccccc3)[nH]c2-c2ccnc(NCCCNS(=O)(=O)c3cccc(F)c3)n2)ccc1Cl  SK-MEL-28 melanoma         True
 2  CCC(CC)N1C(=O)/C(=c2\sc3n(c2=O)NC2C(N=3)N(CC)C(=O)N2CC)c2ccccc21 (centres undefined)  SK-MEL-28 melanoma         True
 3  O=C1Nc2ccccc2/C1=C/c1ccc(CO)n1-c1ccc(Cl)cc1  SK-MEL-28 melanoma         True
 4  CC1=NC2=NC(=O)/C(=C3/N=C(C)C=C(c4ccccc4)N3N)NN2C(c2ccccc2)=C1  SK-MEL-28 melanoma        False
 5  O=C(CSc1nc2ccccc2c(=O)n1-c1ccccc1)Nc1cccc(C(=O)/C=C/c2ccccc2Cl)c1  SK-MEL-28 melanoma        False
 6  CCCCCc1ccc(S(=O)(=O)Nc2cccc(-c3csc(NCCN4CCN(C)CC4)n3)c2)cc1  SK-MEL-28 melanoma        False
 7  Cc1ccc2sc3c(c2c1)OC(N)=C(C#N)C3c1ccc(Cl)cc1 (centres undefined)  SK-MEL-28 melanoma        False
 8   COc1ccccc1NC1=C(Cl)C(=O)c2nc(C)ccc2C1=O  SK-MEL-28 melanoma         True
 9  COc1cc2c(cc1OC)C(Sc1ccc(C)cc1)c1c(nc(N)c(C#N)c1N)O2 (centres undefined)  SK-MEL-28 melanoma         True
10  CNC(=O)c1cc(Oc2ccc3nc(NC(=O)c4cc(N5CCOCC5)cc(C(F)(F)F)c4)sc3c2)ccn1  SK-MEL-28 melanoma        False
11  CC(O)c1cc2ccccc2c(=O)o1 (centres undefined)  SK-MEL-28 melanoma        False
12  CC(=O)c1cc(C(=O)c2ccc(Br)cc2)n2cc(C)cc(C)c12  SK-MEL-28 melanoma        False
13  C=CCn1c(SCC(=O)Nc2ccc(C(=O)/C=C/c3ccc(C)cc3)cc2)nnc1-c1c[nH]c2ccccc12  SK-MEL-28 melanoma        False
14  COc1ccccc1-n1cc(C#N)c(N)c1C(=O)c1ccc(Br)cc1  SK-MEL-28 melanoma        False
